test: Quantitative highthroughput screen to assess conditional lethalithy of NOMO1 cells grown in Human Plasma-Like Medium with dialyzed fetal bovine serum (HPLM+ds) (AID 1963878); details: NOMO1 AML cells in HPLM+ds, CellTiter-Glo viability, 48 h; series mostly up to 45.8 µM; also: nearly all actives have a fitted effect of over 35% in size; also: potency is read from the fitted curve at half-maximal effect
Inconclusive results are not listed. Calls of active or inactive are those of the source. Calls follow the shape of the dose curve; as a rule, active = well fitted cell-killing curve with a large enough effect; inconclusive = small, poorly fitted or top-dose-only effect, or effect the other way; inactive = no such curve, though single readings can be large or run the other way.
reported_metric: Potency

Answered examples (5):
compound	reported_metric	assay_value
CN1C(C(=O)Nc2ccccn2)=C(O)c2sc(Cl)cc2S1(=O)=O	Potency	inactive
CN(C)CCC=C1c2ccccc2C=Cc2ccccc21	Potency	18.7 µM (active)
Cc1cnc(NC(=O)Nc2cc(Br)c(C)cc2OC[C@@H]2CNCCO2)cn1	Potency	1.18 µM (active)
Fc1ccc(C(c2ccc(F)cc2)N2CCN(CC=Cc3ccccc3)CC2)cc1	Potency	inactive
CN1CC(=O)N2C(Cc3c([nH]c4ccccc34)[C@H]2c2ccc3c(c2)OCO3)C1=O (stereo partly drawn)	Potency	inactive

stdin: Look up Potency: CNC(=O)c1nn(C)c2c1C(C)(C)Cc1cnc(Nc3ccc(N4CCN(C)CC4)cc3)nc1-2
stdout: 8.33 µM (active)

stdin: Look up Potency: OCc1ccc(-c2ccc(-c3ccc(CO)s3)o2)s1
stdout: inactive

stdin: Look up Potency: CC[C@H]1OC(=O)[C@H](C)[C@@H](O[C@H]2C[C@@](C)(OC)[C@@H](O)[C@H](C)O2)[C@H](C)[C@@H](O[C@@H]2O[C@@H](C)C[C@H](N(C)C)[C@@H]2O)[C@](C)(O)C[C@@H](C)C(=O)[C@H](C)[C@@H](O)[C@]1(C)O
stdout: 9.35 µM (active)

stdin: Look up Potency: C[C@H](NC(=O)Cc1cc(F)cc(F)c1)C(=O)N[C@@H]1C(=O)N(C)c2ccccc2-c2ccccc21
stdout: 4.69 µM (active)

* * *

test: Viability qHTS for spleen associated tyrosine kinase inhibitor (SYKi) naive MV4-11 cells (AID 1963823); conditions: MV4-11 AML viability, CellTiter-Glo luminescence, 72 h; series mostly up to 45 µM; also: nearly all actives have a fitted effect of over 40% in size
Records with an inconclusive call do not appear. Calls of active or inactive are those of the source. Calls follow the shape of the dose curve; as a rule, active = well fitted cell-killing curve with a large enough effect; inconclusive = small, poorly fitted or top-dose-only effect, or effect the other way; inactive = no such curve, though single readings can be large or run the other way.
Result category, one only: t (active), f (inactive)

stdin: # fetch the recorded call for CC1(C)C[C@H]2C=C(C=O)[C@]3(C(=O)O)C[C@]3(C)[C@H]2C1 here
stdout: f

stdin: # fetch the recorded call for CC(C)C[C@H](NC(=O)c1cc2ccccc2s1)C(=O)N1CCN(C(=O)[C@H](CO)NS(=O)(=O)c2ccc(Cl)cc2Cl)CC1 here
stdout: t

stdin: # fetch the recorded call for O=C1CC[C@H](C(=O)N2CCCCC2)N1 here
stdout: f

stdin: # fetch the recorded call for O=C(C(c1ccccc1)c1ccccc1)N1CCN(CC(O)COc2cccc3ncccc23)CC1 (centres undefined) here
stdout: t

stdin: # fetch the recorded call for CN1C/C=C/CCOc2cccc(c2)-c2ccnc(n2)Nc2cccc(c2)C1 here
stdout: t

stdin: # fetch the recorded call for OCc1ccccc1O[C@@H]1O[C@H](CO)[C@@H](O)[C@H](O)[C@H]1O here
stdout: f

stdin: # fetch the recorded call for COCCCN1CCC(NC(=O)c2cc(Cl)c(N)c3c2OCC3)CC1 here
stdout: f

stdin: # fetch the recorded call for NCCc1ccc(O)c(O)c1 here
stdout: t

stdin: # fetch the recorded call for O=c1[nH]cnc2c([C@@H]3N[C@H](CO)[C@@H](O)[C@H]3O)c[nH]c12 here
stdout: f

stdin: # fetch the recorded call for c1cc(-c2cnn3cc(-c4ccc(OCCN5CCCCC5)cc4)cnc23)ccn1 here
stdout: t

stdin: # fetch the recorded call for O=c1cc(CN2CCOCC2)occ1OCCCCCSc1ccnc2cc(C(F)(F)F)ccc12 here
stdout: t

stdin: # fetch the recorded call for N#CN1CCC[C@@H](n2nc(-c3ccc(Oc4ccc(F)cc4F)cc3)c(C(N)=O)c2N)C1 here
stdout: t

stdin: # fetch the recorded call for COCc1c(C(C)C)nc(C(C)C)c(/C=C/[C@@H](O)C[C@@H](O)CC(=O)O)c1-c1ccc(F)cc1 here
stdout: t

stdin: # fetch the recorded call for O=S(=O)(O)CCSSCCS(=O)(=O)O here
stdout: f

stdin: # fetch the recorded call for COc1ccc(/C=C/C(=O)O[C@@H]2[C@@H](OC(C)=O)[C@@H](OC(C)=O)[C@H](O[C@H]3[C@@H]4C=CO[C@@H](O[C@@H]5O[C@H](CO)[C@@H](O)[C@H](O)[C@H]5O)[C@@H]4[C@@]4(CO)O[C@@H]34)O[C@H]2C)cc1 here
stdout: f

stdin: # fetch the recorded call for CC1=C(C)C(=O)C(CCCCC#CCCCC#CCO)=C(C)C1=O here
stdout: t

stdin: # fetch the recorded call for c1ccc(Cn2c(-c3ccc(OCC(C4CCNCC4)n4c(-c5ccccc5)nc5ccccc54)cc3)nc3ccccc32)cc1 (centres undefined) here
stdout: t

stdin: # fetch the recorded call for CCOCCOC(=O)/C=C/c1ccc(OC)cc1 here
stdout: f

stdin: # fetch the recorded call for CC1C(=O)OCC2=CCN3CCC(OC(=O)C(C)(O)C1(C)O)C23 (centres undefined) here
stdout: f
